- TESTED_SYSTEM: HPPD variant AVESA V313 (SEQ ID NO: 38) (Avena sativa, UniProt A0ACD5V6K6, A327R/I340E/L359Y/P271N/R214G/V218I/V260A)
- Sequence (A0ACD5V6K6 entry or part of it R214G/V218I/V260A/P271N/A327R/I340E/L359Y): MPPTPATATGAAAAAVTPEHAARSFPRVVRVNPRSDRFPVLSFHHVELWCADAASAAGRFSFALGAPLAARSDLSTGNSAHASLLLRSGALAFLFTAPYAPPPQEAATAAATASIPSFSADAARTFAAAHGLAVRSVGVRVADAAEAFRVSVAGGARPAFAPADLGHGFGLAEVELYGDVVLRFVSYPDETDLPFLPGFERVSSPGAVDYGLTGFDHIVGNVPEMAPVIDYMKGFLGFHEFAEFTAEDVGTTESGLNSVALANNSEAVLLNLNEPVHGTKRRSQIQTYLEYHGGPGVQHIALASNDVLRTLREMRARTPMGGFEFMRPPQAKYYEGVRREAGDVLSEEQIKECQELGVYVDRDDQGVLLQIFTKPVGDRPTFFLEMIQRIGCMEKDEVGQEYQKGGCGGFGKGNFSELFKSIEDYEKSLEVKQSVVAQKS
- METHOD: biochemical
- Format: biochemical
PROPERTY_LABEL: IC50 (µM)

> print(dat)
                                   compound  reading
1  Cn1nnnc1NC(=O)c1ccc(C(F)(F)F)nc1-n1cncn1 [Herbicide D]      205

* * *

- TESTED_SYSTEM: HPPD variant AVESA V351 (SEQ ID NO: 50) (Avena sativa, UniProt A0ACD5V6K6, A327R/G411A/I340E/L359Y/R214G/S304T/V218I)
- Sequence (A0ACD5V6K6 entry or part of it R214G/V218I/S304T/A327R/I340E/L359Y/G411A): as the sequence (A0ACD5V6K6 entry or part of it R214G/V218I/V260A/P271N/A327R/I340E/L359Y) above, with A260V, N271P, S304T, G411A counted along it
- METHOD: biochemical
- Type: biochemical
- EXPERIMENTAL_SETUP: AVESA V351, SEQ ID NO: 50; read-out: IC50
pIC50: −log10 of the molar value.
PROPERTY_LABEL: pIC50

> print(dat)
                                   compound  reading
1  COc1ccc(-n2nc(C)cc(C(=O)C3C(=O)CCCC3=O)c2=O)cc1OC [Herbicide C, dioxopyritrione]     4.84
